Cited source: ChEMBL document CHEMBL1201862

Please go through the items and note down their GI50.
- System: NCI/ADR-RES
- PROTOCOL SUMMARY: NCI tumour cell line growth inhibition, 48 h
Calls of active or inactive are those of the source. Cut-off read from the data, not from the text of the source: active = GI50 up to about 1.1 µM and inactive = higher.

Some compounds with recorded GI50:
>>> df
                                   compound  assay_endpoint            obs_value
0       CC(=O)Oc1cc2oc(=O)cc(C)c2cc1OC(C)=O            GI50   32.4 µM (inactive)
1  C/C(=C\CSCC(N)C(=O)O)CC/C=C(\C)CNc1ccccc1 (stereo not given)            GI50  > 100 µM (inactive)
2      O=C(NC(O)(C(F)(F)F)C(F)(F)F)c1ccccc1            GI50  > 100 µM (inactive)
3  CCN(CC)CCCn1c(=O)c2cccnc2n2c3c(=O)n(C)c(=O)n(C)c3nc12            GI50  > 100 µM (inactive)
4  COc1cc(/C=C/C(=O)CC(=O)/C=C/c2cc(OC)c(O)c(OC)c2)cc(OC)c1O            GI50   > 25 µM (inactive)

Record GI50 for all entries; do not skip any.
1. COc1cc(/C=C2\N=C(c3ccccc3)N(c3nc4c(OC)ccc(OC)c4s3)C2=O)cc(OC)c1OC
2. O=C(Cn1c(=O)oc2ccccc21)N(c1ccccc1)c1ccccc1
3. COC(=O)C#Cc1ccc([N+](=O)[O-])cc1
4. FC(F)(F)c1cccc(COCCN2CCN(Cc3cccc(C(F)(F)F)c3)CC2)c1
5. CC(C)=CC(O)C/C(C)=C/CC/C(C)=C/CCC1(C)C(CCCO)/C(=C(/C)C=O)CCC1(C)O (stereo not given)

Result:
1: > 100 µM (inactive); 2: 77.6 µM (inactive); 3: 2.87 µM (inactive); 4: 18.6 µM (inactive); 5: 65.3 µM (inactive)

###

For each entry below, report its GI50 value.
- Test system: UO-31
- PROTOCOL SUMMARY: NCI tumour cell line growth inhibition, 48 h
Calls of active or inactive are those of the source. No stated cut-off is given here; in the data, active = GI50 up to about 1.1 µM and inactive = higher.

>>> print(df.to_string())
                                   compound            obs_value
0        O=C1/C(=C/c2ccc(Cl)cc2)CSc2ccccc21   17.6 µM (inactive)
1  COC1/C=C\C=C(/C)C(=O)NC2=CC(=O)C(N)=C(CC(C)CC(OC)C(O)C(C)C=C(C)C1OC(N)=O)C2=O (stereo not given)    0.184 µM (active)
2  CCCCCCCC1(N=[N+]=[N-])C(=O)Nc2ccccc2C1=O (stereo not given)   12.7 µM (inactive)
3                  CC(C)(NC1=NCCO1)c1ccccc1  > 100 µM (inactive)
4      C#CC[N+](CCO)(CCO)CCCCCCCCCCCCCCCCCC   15.1 µM (inactive)

State the recorded GI50 for every item in the following list.
1. O=C(C(=O)c1cc(-c2ccccc2)nc2ccc3ccccc3c12)c1ccccc1
2. S=C(N/N=C\C=N/NC(=S)N1CCCCCC1)N1CCCCCC1
3. CCOC(=O)C(NC(=O)CC)(Nc1ccc(S(=O)(=O)Nc2ncccn2)cc1)C(F)(F)F (stereo not given)
4. O=C1/C(=C\c2cccc(Oc3ccccc3)c2)SC(c2ccccc2)N1c1ccccc1 (stereo not given)
5. O=C1c2ccccc2C(C2c3ccccc3C(=O)c3cc(Br)ccc32)c2ccc(Br)cc21 (stereo not given)

Result:
> 100 µM (inactive)
8.22 µM (inactive)
> 100 µM (inactive)
> 100 µM (inactive)
> 100 µM (inactive)
